- STUDY SYSTEM: T1, human MET ECD (human, UniProt P08581 25-932)
- T1 construct: range 1-932; recombinant ECD made by the applicants; the stated range begins at residue 1, so it includes the signal peptide of the entry; also called hMET; hMET ECD
- T1 sequence (P08581 25-932 limits assumed, form in doubt): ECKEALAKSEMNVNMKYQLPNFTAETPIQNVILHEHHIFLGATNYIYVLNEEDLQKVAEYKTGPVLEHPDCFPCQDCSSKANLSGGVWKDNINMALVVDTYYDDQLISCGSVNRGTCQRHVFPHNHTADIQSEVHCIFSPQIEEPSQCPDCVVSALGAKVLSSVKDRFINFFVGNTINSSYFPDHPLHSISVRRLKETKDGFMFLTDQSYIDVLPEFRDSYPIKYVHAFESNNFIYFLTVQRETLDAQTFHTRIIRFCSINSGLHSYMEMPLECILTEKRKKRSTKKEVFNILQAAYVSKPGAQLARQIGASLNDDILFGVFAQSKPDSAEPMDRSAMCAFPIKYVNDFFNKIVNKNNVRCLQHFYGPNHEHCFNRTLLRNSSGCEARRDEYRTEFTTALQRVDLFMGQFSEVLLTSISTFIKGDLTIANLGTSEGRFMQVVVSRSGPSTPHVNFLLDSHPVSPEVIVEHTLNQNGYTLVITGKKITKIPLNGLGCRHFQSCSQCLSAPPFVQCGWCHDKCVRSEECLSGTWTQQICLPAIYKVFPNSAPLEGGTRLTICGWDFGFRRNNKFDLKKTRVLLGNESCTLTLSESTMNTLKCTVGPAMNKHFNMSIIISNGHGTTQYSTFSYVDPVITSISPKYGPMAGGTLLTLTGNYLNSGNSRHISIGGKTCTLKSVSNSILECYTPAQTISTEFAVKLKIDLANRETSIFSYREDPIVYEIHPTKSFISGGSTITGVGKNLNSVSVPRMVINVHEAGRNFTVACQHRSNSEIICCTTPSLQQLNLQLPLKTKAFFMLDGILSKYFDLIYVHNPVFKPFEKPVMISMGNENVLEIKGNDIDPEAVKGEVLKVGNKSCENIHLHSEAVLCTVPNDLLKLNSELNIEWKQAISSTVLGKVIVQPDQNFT
- TEST PROTOCOL: ELISA, MET ECD in solid phase, mAb 0-20 nM
Collected EMAX (OD450) values appear next to each entry.
Field format: number, assumed AU, no unit text.

1. 71G12 chimeric llama-human IgG1 mAb (antibody, V domains shown, llama VH on human IgG1 CH1-CH2-CH3, llama VL on human kappa CL) VH: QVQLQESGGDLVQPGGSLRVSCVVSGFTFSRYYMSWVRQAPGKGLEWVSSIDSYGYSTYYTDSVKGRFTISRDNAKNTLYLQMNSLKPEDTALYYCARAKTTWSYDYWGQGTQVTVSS VL: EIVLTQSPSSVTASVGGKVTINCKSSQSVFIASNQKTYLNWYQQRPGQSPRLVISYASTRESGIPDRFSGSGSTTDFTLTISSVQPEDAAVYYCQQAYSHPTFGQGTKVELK | 3.08
2. 71D6 chimeric llama-human IgG1 mAb (antibody, V domains shown, llama VH on human IgG1 CH1-CH2-CH3, llama VL on human lambda CL) VH: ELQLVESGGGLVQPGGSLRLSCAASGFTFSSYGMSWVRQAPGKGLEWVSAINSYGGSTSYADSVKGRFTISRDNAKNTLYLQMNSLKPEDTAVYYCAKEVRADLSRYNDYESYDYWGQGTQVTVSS VL: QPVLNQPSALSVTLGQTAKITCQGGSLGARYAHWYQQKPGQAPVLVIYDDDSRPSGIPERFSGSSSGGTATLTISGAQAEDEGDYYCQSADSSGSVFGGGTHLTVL | 2.08

Kindly indicate its recorded EMAX (OD450). Item: 76H10 chimeric llama-human IgG1 mAb (antibody, V domains shown, llama VH on human IgG1 CH1-CH2-CH3, llama VL on human lambda CL) VH: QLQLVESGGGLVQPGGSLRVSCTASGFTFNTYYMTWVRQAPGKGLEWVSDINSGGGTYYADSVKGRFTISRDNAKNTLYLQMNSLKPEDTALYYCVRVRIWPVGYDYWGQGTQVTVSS VL: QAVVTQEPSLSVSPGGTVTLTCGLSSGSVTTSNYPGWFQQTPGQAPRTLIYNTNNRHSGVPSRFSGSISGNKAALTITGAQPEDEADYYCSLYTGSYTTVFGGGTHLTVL
2.67

Given the binder 71G3 chimeric llama-human IgG1 mAb (antibody, V domains shown, llama VH on human IgG1 CH1-CH2-CH3, llama VL on human lambda CL) VH: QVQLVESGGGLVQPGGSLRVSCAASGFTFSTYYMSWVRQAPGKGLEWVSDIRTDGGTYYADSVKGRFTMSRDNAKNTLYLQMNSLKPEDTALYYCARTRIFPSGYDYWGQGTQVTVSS VL: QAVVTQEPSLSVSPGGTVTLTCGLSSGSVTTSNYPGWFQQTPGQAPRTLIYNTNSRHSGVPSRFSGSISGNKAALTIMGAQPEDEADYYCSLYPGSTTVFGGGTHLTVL , write its reported EMAX (OD450).
2.83

Identify measured EMAX (OD450) corresponding to 74C8 chimeric llama-human IgG1 mAb (antibody, V domains shown, llama VH on human IgG1 CH1-CH2-CH3, llama VL on human lambda CL) VH: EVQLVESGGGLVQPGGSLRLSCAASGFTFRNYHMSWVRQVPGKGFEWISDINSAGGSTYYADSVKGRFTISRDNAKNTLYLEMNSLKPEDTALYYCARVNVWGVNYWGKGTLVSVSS VL: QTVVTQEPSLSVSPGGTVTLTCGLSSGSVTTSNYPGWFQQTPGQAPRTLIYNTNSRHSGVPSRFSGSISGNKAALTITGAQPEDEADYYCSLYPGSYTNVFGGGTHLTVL
0.994

Where these numbers come from: patent US20210087281A1
